Where these numbers come from: paper PMC5547389

# key: entry, value: MIC
- Test system: Bacillus subtilis (RCMB 010067)
- assay.overview: MIC by serial dilution method
- Type: cell-based
- particulars: RCMB010067, Gm+ve, read-out: Minimum inhibitory concentration, MIC, B.S
- Experimental: All the newly synthesized compounds described in this report were screened for both antibacterial and antifungal activity via the reported agar diffusion well method (Vanden Berghe and Vlietinck, 1991[62]). The inhibition zones and minimum inhibitory concentrations (MIC) were determined by the serial dilution method (Cappuccino and Sherman, 1999[12]). […]
Include the unit after the number when you answer.

Field: example entries. Status: answers known.
[
  {
    "molecule": "CC1(C)S[C@@H]2[C@H](NC(=O)[C@H](N)c3ccccc3)C(=O)N2[C@H]1C(=O)O [Ampicillin, reference compound]",
    "property": "MIC",
    "observed.measurement": "0.007 mg/L"
  },
  {
    "molecule": "COc1ccc(N=Nc2cc3c(cc2O)OC(N)=C(C#N)C3c2ccc(F)cc2)cc1 (stereo not drawn) [13b]",
    "property": "MIC",
    "observed.measurement": "3.9 mg/L"
  }
]

Let us move to another entry and its MIC.
Problem: // lookup MIC for N#CC1=C(N)Oc2c(N)cc3ccccc3c2C1c1ccc(F)cc1 (stereo not drawn)
Result: 3.9 mg/L
